Test system: P388 leukemia ip, CD2F1 mice, survival T/C
Test: NCI In Vivo Anticancer Drug Screen. Data for tumor model P388 Leukemia (intraperitoneal) in CD2F1 (CDF1) mice
Conditions: endpoint: median survival time; dose: 120.0 mg/kg/injection; schedule: Q01DX005 (ip); vehicle: saline; higher = longer survival
Inconclusive results and toxic doses are left out.
PROPERTY LABEL: T/C

Answered cases to consult:
Cc1ccc(C)c(CN(CCO)CCO)c1; 102 % of control
COc1ccc(/C=N/N2CN(C(C)C(=O)O)C(O)(CCl)N=C2N)cc1OC (configuration not stated); 114 % of control
C/C=C/C1OC(OC)(OC)C1(OC)OC (configuration not stated); 100 % of control
CCOCC#CC(OCC)OCC; 99 % of control

Looking up COc1ccc(-c2cc(-c3cc(-c4ccc(OC)cc4)on3)no2)cc1 , I found its T/C recorded as 92 % of control

====

System: P388 leukemia ip, CD2F1 mice, survival T/C
Experiment: NCI In Vivo Anticancer Drug Screen. Data for tumor model P388 Leukemia (intraperitoneal) in CD2F1 (CDF1) mice
Conditions: endpoint: median survival time; dose: 50.0 mg/kg/injection; schedule: Q01DX009 (ip); vehicle: saline with Tween-80
Toxic doses and inconclusive results are not listed. How the source made its calls: active means survival T/C of 150% or more; inactive means T/C below 125% in these data.
Write down the outcome that applies. Available outcomes: active, inactive

Solved cases below.
CCCCCCCCCCCC#CC(=O)O; inactive
CC(=O)OCC(O)CS(=O)c1ccc(C)cc1 (configuration not stated); inactive
CC(=O)CC(=O)CCCCCCC(=O)O; inactive

// query What is the recorded call for this molecule in the test? NC(N)=NC(N)=Nc1c(F)c(F)c(F)c(F)c1F
// result inactive

// query Could you kindly confirm the outcome this assay logged for Cc1nc(-c2ccccc2-n2cccc2)no1 ?
// result inactive

// query Look up the recorded call for Cc1ccc(NCCNCCO)c2c(=O)c3ccc(O)cc3sc12 in this test.
// result active

// query Field: outcome | Entry: C[n+]1ccccc1C1(O)CCCC1
// result inactive

====

Overview of reported T/C across a group of molecules:
System: P388 leukemia ip, CD2F1 mice, survival T/C
Test: NCI In Vivo Anticancer Drug Screen. Data for tumor model P388 Leukemia (intraperitoneal) in CD2F1 (CDF1) mice
Conditions: endpoint: median survival time; dose: 400.0 mg/kg/injection; schedule: Q01DX001 (ip); vehicle: saline with Tween-80; higher = longer survival
Inconclusive results and toxic doses are left out.

The value of T/C measured for the molecule Nc1cc(=O)[nH]c(=S)n1-c1ccc(Br)cn1 turned out to be 90 % of control

The molecule CSc1nc(N)c2cnn(Cc3ccccc3)c2n1 showed T/C equal to 94 % of control

Reported T/C for Cn1c2cc([N+](=O)[O-])ccc2c(=O)c2c(O)cc(O)cc21 was 104 % of control

Entry O=C(O)/C(=C/c1ccc(/C=C(/C(=O)O)c2ccccc2)o1)c1ccccc1 — recorded T/C = 101 % of control

Entry CC(C)(CO)NC(=O)c1ccc(C(C)(C)C)cc1Br , T/C reported as 100 % of control

get_value(item= CCOC(=O)c1cc2ccccc2c(-c2ccccc2)c1C(=O)OCC , readout=T/C) returns 90 % of control

====

Tested on: P388 leukemia ip, CD2F1 mice, survival T/C
Assay: NCI In Vivo Anticancer Drug Screen. Data for tumor model P388 Leukemia (intraperitoneal) in CD2F1 (CDF1) mice
Conditions: endpoint: median survival time; dose: 60.0 mg/kg/injection; schedule: Q01DX005 (ip); vehicle: saline; higher = longer survival
Inconclusive results and toxic doses are left out.
PROPERTY LABEL: T/C

Please review the following examples before continuing.
CC(=O)Nc1ccc(/C=N/NC(=O)COc2ccccc2)cc1; 100 % of control
OCC(CO)(CO)NCCCNC(CO)(CO)CO; 98 % of control
CCC(=N)C(c1ccccc1)(c1ccccc1)C(C)CN(C)C (stereo not drawn); 100 % of control
COC(=O)C(=O)C(C(=O)C=C(C)C)c1nc2n(c1O)C(=N)N=N2 (stereo not drawn); 116 % of control
COC(=O)C1(CC(C)=O)NC(=S)NC(=O)C1C#N (stereo not drawn); 100 % of control
c1c(-c2cc(C3CC3)on2)noc1C1CC1; 100 % of control

// T/C lookup, molecule = COC(=O)Cc1[nH]ncc1C(=O)OC , result: 106 % of control

Reported T/C of CC1(C)CC(NCCCN(CCO)CCO)CC(C)(C)N1O : 99 % of control

Data point: COC(C(=O)O)(c1ccccc1)C(F)(F)F (stereo not drawn) ; T/C = 100 % of control

Value of measured T/C for the entry Cc1ccc(C)c(CN(CCO)CCO)c1 : 109 % of control

Value of T/C reported for the molecule COC(CC(C)(O)C(F)(F)F)OC (stereo not drawn) is 103 % of control

Form: molecule = COc1nc(NC2OC(CO)C(O)C(O)C2O)c(Cl)c(=O)[nH]1 (stereo not drawn) ; T/C = 97 % of control

T/C for O=C1c2ccncc2C(=O)N1CCO is 103 % of control

// T/C value for C[C@@H]1[C@H](c2ccccc2)OCN1C : 118 % of control

Sample COc1ccc(C(=O)Cc2nc3nnc(N)n3nc2CC(=O)c2ccc(OC)cc2)cc1 ; T/C observed: 96 % of control

What the record says about CN(c1ccccc1)c1cc(=O)nc2ccccn12 : T/C is 105 % of control

The value of T/C measured for the molecule CC(C)=CCC/C(C)=C/CC/C(C)=C/CC/C=C(\C)CC/C=C(\C)CCC[N+](C)(C)[O-] turned out to be 101 % of control

The recorded T/C for COc1ccc(/C=N/N2CN(C(C)C(=O)O)C(O)(CCl)N=C2N)cc1OC (stereo not drawn) is 108 % of control
